# tested.system: T1, HLA-A*02:01 (peptide-receptive MHC class I molecule of the UV-ligand exchange assay) (human)
# T1 construct: MHC monomer first loaded with a UV-sensitive peptide (not identified) that is cleaved by UV light and exchanged for the test peptide; captured on streptavidin plates
# test.summary: UV-ligand exchange, anti-b2m ELISA; peptide exchange yield grade (>=10% = +; >=20% = ++; >=50 = +++; >=75% = ++++)
For each of the binders below, state its peptide exchange yield.

binder	peptide exchange yield
GLDVTSLRPFDL (synthetic peptide; source gene FLNA) [GLDVTSLRPFDL (SEQ ID NO: 33)]	50 to 75%
IAAIRGFLV (synthetic peptide; source gene ABHD11) [IAAIRGFLV (SEQ ID NO: 38)]	50 to 75%
YTAQIGADIAL (synthetic peptide; source genes TPSB2, TPSAB1) [YTAQIGADIAL (SEQ ID NO: 46)]	50 to 75%

Need peptide exchange yield for each of these binders.
1. VLPKLYVKL (synthetic peptide; source genes RPS26P11, RPS26, RPS26P28, RPS26P15, RPS26P25, RPS26P58) [VLPKLYVKL (SEQ ID NO: 31)]
2. SLSPVILGV (synthetic peptide; source gene IL36RN) [SLSPVILGV (SEQ ID NO: 13)]
3. SIYEYYHAL (synthetic peptide; source gene HIF1A) [SIYEYYHAL (SEQ ID NO: 90)]
4. LLPPPPPPA (synthetic peptide; source gene ADAMTS2) [LLPPPPPPA (SEQ ID NO: 25)]
5. VLAEGGEGV (synthetic peptide; source gene PDPN) [VLAEGGEGV (SEQ ID NO: 16)]
6. NIIELVHQV (synthetic peptide; source gene SYK) [NIIELVHQV (SEQ ID NO: 85)]
7. LVRDTQSGSL (synthetic peptide; source gene SERPINH1) [LVRDTQSGSL (SEQ ID NO: 39)]

Output:
1. 20 to 50%
2. ≥ 75%
3. 50 to 75%
4. 50 to 75%
5. 50 to 75%
6. ≥ 75%
7. 20 to 50%

For each of the items listed, what is its peptide exchange yield?
1. LLRFSQDNA (synthetic peptide; source gene LAP3) [LLRFSQDNA (SEQ ID NO: 35)]
2. IVREFLTAL (synthetic peptide; source gene CRCP) [IVREFLTAL (SEQ ID NO: 21)]
3. LLANGVYAA (synthetic peptide; source gene ANO1) [LLANGVYAA (SEQ ID NO: 15)]
4. KVADYIPQL (synthetic peptide; source gene GLS) [KVADYIPQL (SEQ ID NO: 76)]
5. SLLDTLREV (synthetic peptide; source gene PPP4R1) [SLLDTLREV (SEQ ID NO: 59)]
6. KLIDDVHRL (synthetic peptide; source gene SRPR) [KLIDDVHRL (SEQ ID NO: 91)]

Output:
1: 50 to 75%; 2: 50 to 75%; 3: 10 to 20%; 4: 50 to 75%; 5: 50 to 75%; 6: ≥ 75%

Reference source for all entries: patent US20260028387A1
